Test system: 885512-296-R-J2-PDC complex spheroid growth, % test/control
MEASUREMENT DESCRIPTION: Anticancer human tumor 885512-296-R-J2-PDC patient-derived breast carcinoma cell line growth inhibition [Asc]
CONDITION DESCRIPTION: curve of first compound; second compound 0.949 µM
Source text: Multicellular complex tumor spheroid response to apoptosis pathway targeting inhibitors Alrizomadlin, Pelcitoclax, and Dasminapant in combination with a variety of drugs and investigational agents in selected tumor cell lines […] Compounds. […] If the clinical Cmax for an agent had not been determined, the highest concentration tested was 10 microM. […]
pIC50: −log10 of the molar value.
READOUT NAME: pIC50

Here are 3 compounds together with their reported answers.
COMPOUND | REPORTED MEASUREMENT
CNC(C)C(=O)NC1CN(S(=O)(=O)c2cccc(S(=O)(=O)N3CCC4CCC(C(=O)NC(c5ccccc5)c5ccccc5)N4C(=O)C(NC(=O)C(C)NC)C3)c2)CCC2CCC(C(=O)NC(c3ccccc3)c3ccccc3)N2C1=O (centres undefined) + CCN1C(C(=O)NC23CCC(C(=O)O)(CC2)CC3)C(c2cccc(Cl)c2F)C2(C(=O)Nc3cc(Cl)ccc32)C12CCCCC2 | < 6.00
C=CC(=O)N1CCN(c2nc(=O)n(-c3c(C)ccnc3C(C)C)c3nc(-c4c(O)cccc4F)c(F)cc23)C(C)C1 (centres undefined) + CCN1C(C(=O)NC23CCC(C(=O)O)(CC2)CC3)C(c2cccc(Cl)c2F)C2(C(=O)Nc3cc(Cl)ccc32)C12CCCCC2 | < 5.00
NC1CCC(NC2CC2c2ccccc2)CC1 (centres undefined) + CCN1C(C(=O)NC23CCC(C(=O)O)(CC2)CC3)C(c2cccc(Cl)c2F)C2(C(=O)Nc3cc(Cl)ccc32)C12CCCCC2 | < 7.00

// switching to the query compound
Quote pIC50 reported for C#Cc1c(F)ccc2cc(O)cc(-c3ncc4c(N5CC6CCC(C5)N6)nc(OCC56CCCN5CC(F)C6)nc4c3F)c12 (centres undefined) + CCN1C(C(=O)NC23CCC(C(=O)O)(CC2)CC3)C(c2cccc(Cl)c2F)C2(C(=O)Nc3cc(Cl)ccc32)C12CCCCC2 please.
< 5.00

====

Tested on: 885512-296-R-J2-PDC complex spheroid growth, % test/control
MEASUREMENT DESCRIPTION: Anticancer human tumor 885512-296-R-J2-PDC cell line growth inhibition [Asc];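 further: spheroids exposed to compounds for seven days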
CONDITION DESCRIPTION: curve of first compound; second compound 3.16 µM
Source text: Multicellular complex tumor spheroid response to apoptosis pathway targeting inhibitors Alrizomadlin, Pelcitoclax, and Dasminapant in combination with a variety of drugs and investigational agents in selected tumor cell lines […] Compounds. […] If the clinical Cmax for an agent had not been determined, the highest concentration tested was 10 microM. […]
READOUT NAME: IC50

COMPOUND | TESTED ON | IC50
C=CC(=O)N1CCN(c2nc(=O)n(-c3c(C)ccnc3C(C)C)c3nc(-c4c(O)cccc4F)c(F)cc23)C(C)C1 (centres undefined) + Cc1c(S(C)(=O)=O)c(-c2cc(F)cc(N3CCN(c4ccc(NS(=O)(=O)c5ccc(NC(CCN6CCC(C(=O)OCCCP(=O)(O)O)CC6)CSc6ccccc6)c(S(=O)(=O)C(F)(F)F)c5)cc4)CC3)c2)c(-c2ccc(Cl)cc2)n1C(C)C | 885512-296-R-J2-PDC complex spheroid growth, % test/control | > 10 µM
CNC(C)C(=O)NC1CN(S(=O)(=O)c2cccc(S(=O)(=O)N3CCC4CCC(C(=O)NC(c5ccccc5)c5ccccc5)N4C(=O)C(NC(=O)C(C)NC)C3)c2)CCC2CCC(C(=O)NC(c3ccccc3)c3ccccc3)N2C1=O (centres undefined) + Cc1c(S(C)(=O)=O)c(-c2cc(F)cc(N3CCN(c4ccc(NS(=O)(=O)c5ccc(NC(CCN6CCC(C(=O)OCCCP(=O)(O)O)CC6)CSc6ccccc6)c(S(=O)(=O)C(F)(F)F)c5)cc4)CC3)c2)c(-c2ccc(Cl)cc2)n1C(C)C | 885512-296-R-J2-PDC complex spheroid growth, % test/control | > 1 µM
CCN1C(C(=O)NC23CCC(C(=O)O)(CC2)CC3)C(c2cccc(Cl)c2F)C2(C(=O)Nc3cc(Cl)ccc32)C12CCCCC2 (centres undefined) + Cc1c(S(C)(=O)=O)c(-c2cc(F)cc(N3CCN(c4ccc(NS(=O)(=O)c5ccc(NC(CCN6CCC(C(=O)OCCCP(=O)(O)O)CC6)CSc6ccccc6)c(S(=O)(=O)C(F)(F)F)c5)cc4)CC3)c2)c(-c2ccc(Cl)cc2)n1C(C)C | 885512-296-R-J2-PDC complex spheroid growth, % test/control | > 3 µM

# evaluate next
Please indicate IC50 recorded for C#Cc1c(F)ccc2cc(O)cc(-c3ncc4c(N5CC6CCC(C5)N6)nc(OCC56CCCN5CC(F)C6)nc4c3F)c12 (centres undefined) + Cc1c(S(C)(=O)=O)c(-c2cc(F)cc(N3CCN(c4ccc(NS(=O)(=O)c5ccc(NC(CCN6CCC(C(=O)OCCCP(=O)(O)O)CC6)CSc6ccccc6)c(S(=O)(=O)C(F)(F)F)c5)cc4)CC3)c2)c(-c2ccc(Cl)cc2)n1C(C)C
> 10 µM
